Sourced from patent US20150086555A1

biological target: recombinant soluble homotrimeric HA of A/Japan/305/57 (H2N2) (Influenza A virus A/Japan/305/1957(H2N2)); assay: trimeric HA microarray, transfection supernatant set 5; conditions: remark: other sources report otherwise
property_measured: Trimeric HA Binding: RLU (RLU)

binder: TCN-539 (5056_A08) (antibody, V domains shown) VH: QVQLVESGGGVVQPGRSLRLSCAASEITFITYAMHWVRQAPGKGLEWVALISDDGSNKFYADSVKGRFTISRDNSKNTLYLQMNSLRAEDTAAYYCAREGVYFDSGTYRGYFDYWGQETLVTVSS VL: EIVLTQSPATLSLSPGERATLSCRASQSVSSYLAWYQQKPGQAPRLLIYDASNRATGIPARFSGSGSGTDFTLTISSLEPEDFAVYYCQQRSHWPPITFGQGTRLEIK
property_measured: Trimeric HA Binding: RLU
observed: 2560
